Known AC50 of a selection of compounds
target: Human ALDH3A1 (Homo sapiens, UniProt P30838); assay: ALDH3A1 biochemical assay (benzaldehyde/NADP+, diaphorase-resazurin readout, 1,536-well)
Sequence (P30838 whole entry): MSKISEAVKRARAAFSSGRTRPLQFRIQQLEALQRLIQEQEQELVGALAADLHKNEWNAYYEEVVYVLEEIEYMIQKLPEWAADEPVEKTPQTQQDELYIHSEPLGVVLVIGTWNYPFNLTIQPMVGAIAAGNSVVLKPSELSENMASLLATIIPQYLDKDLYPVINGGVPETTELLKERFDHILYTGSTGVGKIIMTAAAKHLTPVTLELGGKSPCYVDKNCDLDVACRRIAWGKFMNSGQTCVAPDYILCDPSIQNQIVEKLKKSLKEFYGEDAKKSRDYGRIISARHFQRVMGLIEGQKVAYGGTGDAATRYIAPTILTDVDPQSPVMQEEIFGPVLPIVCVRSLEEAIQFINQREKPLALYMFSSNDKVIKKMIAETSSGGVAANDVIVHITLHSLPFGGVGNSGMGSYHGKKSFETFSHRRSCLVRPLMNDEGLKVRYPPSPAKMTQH
measured-endpoint: AC50 (µM)

>  <smiles-code>
NC(=O)[C@H](Cc1ccc(O)cc1)NC(=O)[C@@]1(O)C[C@@H](O)[C@H](O)[C@@H](NC(=O)c2ccc(F)c(Cl)c2)C1

>  <result>
35.5

$$$$
>  <smiles-code>
COc1ccc(N2CCN(c3nc(C(=O)NCc4cccc(C)c4)cs3)CC2)c(OC)c1

>  <result>
1.15

$$$$
>  <smiles-code>
CNC(=O)c1cccc(-c2cnc(Nc3cncnc3)c3c2CCO3)c1

>  <result>
44.7

$$$$
>  <smiles-code>
Cc1ccccc1-c1cccc(CNC(=O)c2csc(N3CCN(c4cccc(C(F)(F)F)c4)CC3)n2)c1

>  <result>
0.075

$$$$
